Reported AC50 values for a set of compounds
- Experimental target: Histone acetyltransferase RTT109 (Candida albicans (strain SC5314 / ATCC MYA-2876)) (UniProt Q5AAJ8)
- Sequence (Q5AAJ8 whole entry, looked up): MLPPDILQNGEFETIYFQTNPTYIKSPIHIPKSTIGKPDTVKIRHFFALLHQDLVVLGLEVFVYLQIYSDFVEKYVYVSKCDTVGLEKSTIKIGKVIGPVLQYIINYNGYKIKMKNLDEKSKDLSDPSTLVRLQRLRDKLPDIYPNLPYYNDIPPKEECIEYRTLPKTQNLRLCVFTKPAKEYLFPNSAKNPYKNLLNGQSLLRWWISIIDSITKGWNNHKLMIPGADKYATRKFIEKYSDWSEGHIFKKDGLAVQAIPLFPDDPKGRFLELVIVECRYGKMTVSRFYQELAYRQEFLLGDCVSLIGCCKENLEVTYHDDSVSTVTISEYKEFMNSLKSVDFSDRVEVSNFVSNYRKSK
- Assay explanation: C. albicans Rtt109 HAT inhibition curves – biochemical, cherry-picked hits, plate reader, dose response (AID 588764)
- Condition description: Rtt109/Vps75 HAT activity
Records with an inconclusive call do not appear.

Compound: CCCCS(=O)(=O)/C=C\C=C/S(=O)(=O)CCCC
AC50: 7.19 µM

Compound: CCN1CCN(C(c2cccnc2)c2cc(Cl)c3cccnc3c2O)CC1 (stereo not given)
AC50: 13.9 µM

Compound: CC(C)(C)c1cc(C(c2cccnc2)N2CCN(CCO)CC2)cc(C(C)(C)C)c1O (stereo not given)
AC50: 9.87 µM

Compound: COc1ccc(OC)c2sc(N(CCCN(C)C)C(=O)CCS(=O)(=O)c3ccccc3)nc12
AC50: 20.1 µM

Compound: CC1=C(C)/C(=N\OS(=O)(=O)c2ccc(C)cc2)C=CC1=O
AC50: 8.6 µM

Compound: CCOc1ccc(N2C(=O)C(Cl)=C(N3CCOCC3)C2=O)cc1
AC50: 20.3 µM

Compound: O=C(O)c1cccc(-n2sc3ccccc3c2=O)c1
AC50: 10.5 µM

Compound: Cc1cccc(N2C(S)=C(C#N)C(=O)NC2c2cccs2)c1 (stereo not given)
AC50: 11.7 µM

Compound: O=c1[nH]c2ccccc2n2c(-c3ccccc3)nnc12
AC50: 1.98 µM

Compound: O=S(=O)(NN1CCOCC1)c1ccc(Br)cc1
AC50: 11.6 µM

Compound: Oc1cc(O)c(CN2CCOCC2)cc1CN1CCOCC1
AC50: 19.5 µM

Compound: O=C(O)c1ccccc1NS(=O)(=O)c1cccc(-n2sc3ccccc3c2=O)c1
AC50: 3.49 µM

Compound: O=C(COC(=O)c1cnccn1)c1ccc([N+](=O)[O-])cc1
AC50: 11.4 µM

Compound: Cc1ccccc1-n1sc2cc(F)ccc2c1=O
AC50: 5.9 µM

Compound: COC(=O)c1cccc(N2C(=O)C(Cl)=C(N3CCOCC3)C2=O)c1
AC50: 15.8 µM

Compound: CCSS(=O)(=O)c1cccc2cccnc12
AC50: 5.16 µM

Compound: O=C1OC(NC(=O)c2ccccc2)C(n2cc(CO)nn2)=C1Cl (stereo not given)
AC50: 5.2 µM

Compound: O=C(CCC(=O)OCC(=O)c1ccc([N+](=O)[O-])cc1)Nc1ccccc1Cl
AC50: 8.57 µM

Compound: O=S(=O)(Nc1cc(Sc2ncn[nH]2)c(O)c2ccccc12)c1ccccc1
AC50: 4.1 µM

Compound: Cc1nnc(SC2CC(=O)N(c3ccccc3)C2=O)s1 (stereo not given)
AC50: 17.5 µM

Compound: O=c1c2cc(F)ccc2sn1-c1ccccc1
AC50: 1.81 µM

Compound: Oc1c(Cl)cc(Cl)c(Cl)c1Cc1c(O)c(Cl)cc(Cl)c1Cl
AC50: 5.48 µM

Compound: COC(=O)/C=C\C(=O)Nc1cccc([N+](=O)[O-])c1
AC50: 5.62 µM

Compound: Cc1ccc(NC(=O)Cn2sc3nc(C)cc(C)c3c2=O)c(Cl)c1
AC50: 0.831 µM

Compound: CC1CCc2c(sc(N)c2C(N)=O)C1 (stereo not given)
AC50: 20.5 µM

// data source = PubChem BioAssay AID588764
